- Test system: CCRIS mutagenicity, Ames/micronucleus/aberration tests
- ASSAY SUMMARY: CCRIS mutagenicity studies
- CONDITION SUMMARY: Test System: AMES SALMONELLA TYPHIMURIUM; Strain/Indicator: TA1535; Metabolic Activation: RAT, LIVER, S-9, AROCLOR 1254; Method: STANDARD PLATE
The source made the active and inactive calls. No rule for the calls is given here.
QUANTITY NAME: mutagenic call

Below are worked cases with known answers.
MOLECULE | mutagenic call
c1cc2cccc3c4cccc5cccc(c(c1)c23)c54 | active; positive
ClCC1CO1 (stereo not drawn) | active; positive
CCC(C)ON=O (stereo not drawn) | active; positive
CSC[C@H](NC(=O)COc1cccc2cnccc12)C(=O)N[C@@H](Cc1ccccc1)[C@H](O)C(=O)N1CSC[C@H]1C(=O)NC(C)(C)C | inactive; negative
CCCCOCCOCCOCc1cc2c(cc1CCC)OCO2 | inactive; negative

Batch: mutagenic call for all items listed.
1. O=C1CC(c2ccc(O)cc2)Oc2cc(O)cc(O)c21 (stereo not drawn)
2. Nc1cc([N+](=O)[O-])c(N)cc1F
3. Nc1ccc(N)c2c1C(=O)c1cccc([N+](=O)[O-])c1C2=O

result:
["inactive; negative", "inactive; negative", "inactive; negative"]

---

- System: CCRIS mutagenicity, Ames/micronucleus/aberration tests
- ASSAY SUMMARY: CCRIS mutagenicity studies
- CONDITION SUMMARY: Test System: AMES SALMONELLA TYPHIMURIUM; Strain/Indicator: TA100; Metabolic Activation: NONE; Method: STANDARD PLATE
Active and inactive are the calls of the source. How the calls were made is not given here.
// allowed return values: TRUE = active, FALSE = inactive

query: Would you mind telling me which call this test gave "CCN(CCCl)CCCNc1c2ccccc2nc2c1ccc1ccccc12" ?
result: TRUE

query: Test call for this compound, please: "CC(C)c1ccc(/C=C/c2ccc(N)cc2)cc1"
result: FALSE

query: State the result this test recorded for "CCc1ccc(/C=C/c2ccc([N+](=O)[O-])cc2)cc1" .
result: TRUE

query: Which outcome did this test record for the compound CCC(C)ON=O (stereo not given) ?
result: FALSE

query: Per the records of this test, what outcome belongs to "CC(=O)N(O)c1ccc(Oc2ccc(Cl)cc2Cl)cc1" ?
result: FALSE

---

- Test system: CCRIS mutagenicity, Ames/micronucleus/aberration tests
- ASSAY SUMMARY: CCRIS mutagenicity studies
- CONDITION SUMMARY: Test System: MOUSE LYMPHOMA; Strain/Indicator: L5178Y (TK+/TK-); Metabolic Activation: NONE; Method: SUSPENSION/PLATE
Active and inactive are the calls of the source. The rule behind the calls is not given here.
QUANTITY NAME: mutagenic call

MOLECULE | mutagenic call
C[Si]1(C)O[Si](C)(C)O[Si](C)(C)O[Si](C)(C)O[Si](C)(C)O1 | inactive; negative
C[C@@H]1Cc2c(Cl)cc(C(=O)NC(Cc3ccccc3)C(=O)O)c(O)c2C(=O)O1 (some centres not stated) | inactive; negative
NS(=O)(=O)c1cc2c(cc1Cl)NCNS2(=O)=O | active; positive
C1CCNCC1 | active; positive
CNc1ccc(NCCO)c2c1C(=O)c1ccccc1C2=O | active; positive
Brc1c(Br)c(Br)c(Oc2c(Br)c(Br)c(Br)c(Br)c2Br)c(Br)c1Br | inactive; negative
ClCc1cccnc1 | active; positive
O=c1[nH]c(=O)c2[nH]cnc2[nH]1 | inactive; negative
NCCCNCCCCN(CCCN)/[N+]([O-])=N/O | active; positive
Nc1ccc(N)c2c1C(=O)c1c(N)ccc(N)c1C2=O | active; positive

For each entry beneath this line, provide reported mutagenic call.
1. c1ccc2c(c1)c1cccc3ccc4cccc2c4c31
2. CC(I)C1OCC(CO)O1 (configuration not stated)
3. COc1ccc(CN(CCN(C)C)c2ccccn2)cc1
4. ClC(Cl)=C(c1ccc(Cl)cc1)c1ccc(Cl)cc1
5. Oc1ccccc1O
6. c1ccc2cc3c(ccc4ccccc43)cc2c1
7. CCCCCCC(C)COC(=O)c1ccccc1C(=O)OCC(C)CCCCCC (configuration not stated)
8. Cc1c(N=C=O)cccc1N=C=O

result:
1: inactive; negative; 2: active; positive; 3: inactive; negative; 4: active; positive; 5: active; positive; 6: active; positive; 7: inactive; negative; 8: active; positive

Parameters: items (list). Returns: mutagenic call for each item.
1. C=CCc1ccc2c(c1)OCO2
2. [Cl][Fe]([Cl])[Cl]
3. COP(=O)(OC)OC=C(Cl)Cl

result:
inactive; negative
inactive; negative
active; positive
